Parameter: relative integration efficiency (log2). Scope: all listed entries.
System: VchCAST RNA-guided transposition machinery (E. coli BL21(DE3) host, lacZ target)
assay_details: relative integration efficiency (T-RL orientation) vs wild-type transposon end (log2 (normalized fold change)); transposon end mutated: right end (5 bp flank + 75 bp right end); higher = more efficient transposition
Provide a numeric answer; units are not to be included.

[
  {
    "biopolymer_sequence": "ACATTTGTTGATACAACCATATATTGATATCTCCACCCATAAATTGATATTGCTCACAACCATAAAATGATAATTACTCTGATCATAGTCAGACCAACATTGCTACGACCCGTATTCGCACCGACAC",
    "relative integration efficiency (log2)": -0.537
  },
  {
    "biopolymer_sequence": "ACATTTGTTGATACAACCATAAAATGATAATTACTCTGATCATAGTCAGACCAACATTGCTACGACCCGTATTCGCACCGACACAACGACTATATTTACACCCATAAATTGATAATTATCAGTGGGT",
    "relative integration efficiency (log2)": -1.36
  }
]

Qu. Input ACATTTGTTGATACAACCATAAGTTGATATTTTCAACCATAAAGTGATATTTATCACAACCATAAAGTGATATTTACTCTGATCATAGTCAGACCAACATTGCTACGACCCGTATTCGCACCGACAC , output reported relative integration efficiency (log2).
Ans. 0.0778

Qu. Input ACATTTGTTGATACAACCATTAAATGATAATTCCACCCATAATTTGATAATTATCACACCCAATTTAACTATAACGCTCTGATCATAGTCAGACCAACATTGCTACGACCCGTATTCGCACCGACAC , output reported relative integration efficiency (log2).
Ans. -0.743

Qu. Input ACATTTGTTGATACAACCATAAAATGATAATTACACCCATAAATTGATAATATTCACACCCATAAATTGATATTGCCTCTGATCATAGTCAGACCAACATTGCTACGACCCGTATTCGCACCGACAC , output reported relative integration efficiency (log2).
Ans. -0.274

###

Tested on: VchCAST RNA-guided transposition machinery (E. coli BL21(DE3) host, lacZ target)
assay_details: relative integration efficiency (T-RL orientation) vs wild-type transposon end (log2 (normalized fold change)); transposon end mutated: right end (5 bp flank + 75 bp right end); higher = more efficient transposition
Lab note: compare relative integration efficiency (log2) against -2. Equal or greater, write t. Smaller, write f.

[
  {
    "biopolymer_sequence": "ACATTTGTTGATACAACCATAAAATGATAATTACTCTGATCATAGTCAGACCAACATTCACCCATAAATTGATAATTATCAGTGGGTATTTAACTATAACGGCTACGACCCGTATTCGCACCGACAC",
    "classification": "f"
  }
]

Qu. Is reported relative integration efficiency (log2) greater than or equal to -2 here: ACATTTGTTGATACAACCATAAAATGATCATTACCCCCATAAATTGATAATTATCCCACCCAATTTAACTATAACGCTCTGATCATAGTCAGACCAACATTGCTACGACCCGTATTCGCACCGACAC
Ans. f

Qu. Is reported relative integration efficiency (log2) greater than or equal to -2 here: ACATTAGTTCATACAACCATAAAATGATAATTACACCCATAAATGGATCATTATCACACCCAATTTAACTATAACGCTCTGATCATAGTCAGACCAACATTGCTACGACCCGTATTCGCACCGACAC
Ans. f

Qu. Is reported relative integration efficiency (log2) greater than or equal to -2 here: ACATTTGTTGATACAACCATAAAATGATAATTACACCCATAAATTGATAATTATCACACCCATAAATTGATATTGCCTCTTCATGCAGATTTGAACAGTTTCAAATGCTGATTTTCAGCACCGACAC
Ans. t

Qu. Is reported relative integration efficiency (log2) greater than or equal to -2 here: ACATTTGTTGATATGTTGATACAACCATAAAATGATAATTACACCCATAAATTGATAATTATCACACCCATAAATTGATATTGCCTCTGATCATAGTCAGACCAACATTGCTACGACCCGTATTCGC
Ans. t

Qu. Is reported relative integration efficiency (log2) greater than or equal to -2 here: ACATGGGTTGATACAACCATAAAATGATAATTACACCCATAAATTGATAATTATCACACCCATAAATTGATATTGCCTCTGATCATAGTCAGACCAACATTGCTACGACCCGTATTCGCACCGACAC
Ans. f

Qu. Is reported relative integration efficiency (log2) greater than or equal to -2 here: ACATTTGTTGATAAAACCATAAAATGATAATTAAACCCATAAATTGATAATTATCAAACCCATAAATTGATATTGCCTCTGATCATAGTCAGACCAACATTGCTACGACCCGTATTCGCACCGACAC
Ans. t

Qu. Is reported relative integration efficiency (log2) greater than or equal to -2 here: ACATTTGTTGATACAACCATAAAATGATAATTAATAATTATTTATAATCAGCAACTTAACCACAAAACACCCATAAATTGATAATTATCAACAAACGCCCGGTCGCGGTACTCTGATCATAGTCAGA
Ans. f

Qu. Is reported relative integration efficiency (log2) greater than or equal to -2 here: ACATTTGTTGATACAACCATAAAATGATAATTACAACCATAAGTTGATATTTTTCACAACCATAAAATGATAATTACTCTGATCATAGTCAGACCAACATTGCTACGACCCGTATTCGCACCGACAC
Ans. t

Qu. Is reported relative integration efficiency (log2) greater than or equal to -2 here: ACATTTGTCGATACAACCCTAAAATGATAATTACACCCATAAATTGATAATTATCACACCCAATTTAACTATAACGCTCTGATCATAGTCAGACCAACATTGCTACGACCCGTATTCGCACCGACAC
Ans. f
